Target: T1, recombinant human IL-33 (R&D Systems 3625-IL), reduced with DTT (human, UniProt O95760 112-270, limits assumed)
T1 sequence (looked up): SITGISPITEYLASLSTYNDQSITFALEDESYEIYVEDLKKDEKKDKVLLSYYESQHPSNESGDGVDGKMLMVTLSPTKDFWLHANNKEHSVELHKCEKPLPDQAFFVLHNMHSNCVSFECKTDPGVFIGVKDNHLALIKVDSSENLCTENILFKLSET
Experiment: cell-based or functional assay
assay_readout: IC50 [nM] versus reduced human IL-33 (R&D), IC50 (AVE) (nM)
Lab book: enter the figure in nM, no units written.

These solved cases illustrate the format of a correct answer.
binder	result_unit	observed_measurement
IL33-0712 (antibody, IgG1, V domains shown) VH: EVQLVESGGGLVQPGGSLRLSCAASGFTFSSYWMYWVRQAPGKGLEWVAAITPNAHAGYYPESVKGRFTISRDNAKNSLYLQMNSLRAEDTAVYYCARGHYYYTSYSLGYWGQGTLVTVSS VL: DIQMTQSPSSLSASVGDRVTITCRASQPISKHLDWYQQKPGKAPKLLIYFTKNLQSGVPSRFSGSGSGTDFTLTISSLQPEDFATYYCFQYNQGWTFGGGTKVEIK	nM	0.01
IL33-0701 (antibody, IgG1, V domains shown) VH: EVQLVESGGGLVQPGGSLRLSCAASGFTFSSYWMYWVRQAPGKGLEWVAAITPNKGVDYYPESVKGRFTISRDNAKNSLYLQMNSLRAEDTAVYYCARGHYYYTSYSLGYWGQGTLVTVSS VL: DIQMTQSPSSLSASVGDRVTITCRASQPISKHLDWYQQKPGKAPKLLIYFTNNLQTGVPSRFSGSGSGTDFTLTISSLQPEDFATYYCFQYKQGWTFGGGTKVEIK	nM	0.013

Query binder follows.
Enquiry: Name the recorded IC50 [nM] versus reduced human IL-33 (R&D), IC50 (AVE) of the item IL33-0710 (antibody, IgG1, V domains shown) VH: EVQLVESGGGLVQPGGSLRLSCAASGFTFSSYWMYWVRQAPGKGLEWVAAITPNAHAGYYPESVKGRFTISRDNAKNSLYLQMNSLRAEDTAVYYCARGHYYYTSYSLGYWGQGTLVTVSS VL: DIQMTQSPSSLSASVGDRVTITCRASQPISKHLDWYQQKPGKAPKLLIYFTKNLVTGVPSRFSGSGSGTDFTLTISSLQPEDFATYYCFQYNQGWTFGGGTKVEIK in your answer.
Return: 0.013
